Data credit: PubChem BioAssay (NCI)

Test system: SF-268 CNS
PROTOCOL TEXT: NCI-60 one-dose screen, 48 h (100 = growth as untreated, 0 = no growth, -100 = all killed)
CONDITION LABEL: 10 µM unless noted
Compounds without any hit were thinned out: in the full panel of roughly 83,000, 20% have a hit.
MEASUREMENT KIND: growth (%)
Report the figure in % without appending any unit label.

Worked examples, 3 molecules total:
MOLECULE	growth [%]
COc1ccc(CCl)c(C)c1OC	97.1
CC(=O)/C(N=Nc1ccc(S(=O)(=O)c2ccc(N=N/C(C(C)=O)=C(/C)O)cc2)cc1)=C(\C)O	101
Cc1nc(Nc2ccc(Cl)cc2)c2cnn(-c3ccccc3)c2n1	99.8

Query string: What measured growth goes with O=C(N=C1C(=O)C2(CCCCC2)C2(N=C(c3ccccc3)OC2=O)C12CCCCC2)c1ccccc1 (stereo unspecified) ?
Result string: 77.8

Query string: What measured growth goes with CCc1ccc(OC(=O)CCl)cc1 ?
Result string: 95.3

----------
Consider the following compounds and their measured growth readings.
System: CCRF-CEM leukemia
PROTOCOL TEXT: NCI-60 one-dose screen, 48 h (100 = growth as untreated, 0 = no growth, -100 = all killed)
CONDITION LABEL: 10 µM unless noted
This is part of a sample that, as a whole, favours compounds with a hit. Of some 83,000 tested, about 20% had one in any assay. Activity calls are given as the source filed them. The calls were made as follows: active = growth percent below 10; inactive = the rest.

Query string: What measured growth goes with COC(=O)c1nc(=S)[nH]c(C(=O)OC)c1C(=O)c1ccccc1 ?
Result string: 103% (inactive)

Query string: What measured growth goes with C(#CCN1CCOCC1)CCCN1CCOCC1 ?
Result string: 107% (inactive)

Query string: What measured growth goes with Nc1c(S(=O)(=O)O)cc(Br)c2c1C(=O)c1ccccc1C2=O ?
Result string: 98.3% (inactive)

Query string: What measured growth goes with O=C(c1ccccc1)C1(Br)CCCCC1 ?
Result string: 97.5% (inactive)

Query string: What measured growth goes with OC1CCCN(Cc2ccccc2)C1 (stereo not drawn) ?
Result string: 98.4% (inactive)

Query string: What measured growth goes with COc1ccc(CCN=Cc2ccc(Cl)cc2)cc1OC ?
Result string: 105% (inactive)

Query string: What measured growth goes with O=[N+]([O-])c1ccc(N/N=C/C2CCCCCC2)c([N+](=O)[O-])c1 ?
Result string: 51.6% (inactive)

Query string: What measured growth goes with O=C(NC(CSSCC(NC(=O)OCc1ccccc1)C(=O)O)C(=O)O)OCc1ccccc1 (stereo not drawn) ?
Result string: 87.3% (inactive)

Query string: What measured growth goes with O=[N+]([O-])c1ccc(N2CCN=N2)cc1 ?
Result string: 91.2% (inactive)

----------
Tested on: PC-3 prostate
PROTOCOL TEXT: NCI-60 one-dose screen, 48 h
CONDITION LABEL: 10 µM unless noted
About 83,000 compounds went through this panel and 20% of them were active in at least one assay; those are over-represented in the sample as a whole. Active and inactive are the calls of the source. The calls were made as follows: active = growth percent below 10; inactive = the rest.
Pick one: active, inactive

COMPOUND	ASSAY TARGET	ASSIGNED CATEGORY
CC(=O)Nc1cscc1NC(C)=O	PC-3 prostate	inactive

Query string: What is the recorded call for this compound in the test? CCCCCCCCCCCCCCCCC(=O)O
Result string: inactive

Query string: What is the recorded call for this compound in the test? COc1ccc(/C=N/NC(N)=S)cc1
Result string: inactive
